biological target: Tubulin (Bos taurus) (UniProt Q6B856+Q862L2+Q862F3); assay: Inhibition of colchicine binding to tubulin was evaluated only when polymerization IC50 <=1.0 uM; format: protein assay
Hi, to clarify the labels: rule met covers inhibition from 20% upward, rule not met covers anything below 20%.

Query string: State whether the measured inhibition reaches 20%, counting equality as reaching it, for CCOc1cccc(-c2cc(O)c3cc4c(cc3n2)OCO4)c1
Result string: rule met

Query string: State whether the measured inhibition reaches 20%, counting equality as reaching it, for Nc1cccc(-c2cc(O)c3cc4c(cc3n2)OCO4)c1
Result string: rule not met

Query string: State whether the measured inhibition reaches 20%, counting equality as reaching it, for Oc1cc(-c2cccc(F)c2)nc2cc3c(cc12)OCO3
Result string: rule met

Query string: State whether the measured inhibition reaches 20%, counting equality as reaching it, for COc1cccc(-c2cc(O)c3cc(N(C)C)ccc3n2)c1
Result string: rule not met

Query string: State whether the measured inhibition reaches 20%, counting equality as reaching it, for Oc1cc(-c2cccc(Br)c2)nc2cc3c(cc12)OCO3
Result string: rule met

Query string: State whether the measured inhibition reaches 20%, counting equality as reaching it, for Oc1cc(-c2cccc(OC(F)(F)F)c2)nc2ccc(N3CCCC3)cc12
Result string: rule met

Query string: State whether the measured inhibition reaches 20%, counting equality as reaching it, for Oc1cc(-c2cccc(C(F)(F)F)c2)nc2cc3c(cc12)OCO3
Result string: rule not met

---

Task for the reader: assign each of the following molecules its reported GI50.
tested on: OVCAR-4; experiment: Tested for in vitro tumor cell growth inhibition of ovarian cancer cell line OVCAR-4; format: functional; conditions: Homo sapiens
Report only the number, with the unit µM understood.

Query string: // fetch OVCAR-4 GI50 for Oc1cc(-c2cccc(OC(F)(F)F)c2)nc2cc3c(cc12)OCO3
Result string: 0.0257

Query string: // fetch OVCAR-4 GI50 for COc1cccc(-c2cc(O)c3cc(N4CCCC4)ccc3n2)c1
Result string: 2

Query string: // fetch OVCAR-4 GI50 for Nc1cccc(-c2cc(O)c3cc4c(cc3n2)OCO4)c1
Result string: 38.9

Query string: // fetch OVCAR-4 GI50 for COc1cccc(-c2cc(O)c3cc(N4CCOCC4)ccc3n2)c1
Result string: 6.31

Query string: // fetch OVCAR-4 GI50 for COc1cccc(-c2cc(O)c3cc(N(C)C)ccc3n2)c1
Result string: 5.5

---

molecular target: Tubulin (Bos taurus, UniProt Q6B856+Q862L2+Q862F3); assay: Inhibition of bovine tubulin polymerization; format: functional
observed_property: IC50 (µM)
Report only the number, with the unit µM understood.

Query string: Query: IC50; subject: Oc1cc(-c2cccc(F)c2)nc2cc3c(cc12)OCO3
Result string: 0.53

Query string: Query: IC50; subject: Oc1cc(-c2cccc(OC(F)(F)F)c2)nc2ccc(N3CCCC3)cc12
Result string: 0.72

Query string: Query: IC50; subject: Nc1cccc(-c2cc(O)c3cc4c(cc3n2)OCO4)c1
Result string: 0.73

Query string: Query: IC50; subject: Nc1ccc2nc(-c3cccc(Cl)c3)cc(O)c2c1
Result string: 6.1

Query string: Query: IC50; subject: Oc1cccc(-c2cc(O)c3cc4c(cc3n2)OCO4)c1
Result string: 0.47

Query string: Query: IC50; subject: Oc1cc(-c2cccc(Cl)c2)nc2cc3c(cc12)OCO3
Result string: 0.37

Query string: Query: IC50; subject: CNc1cccc(-c2cc(O)c3cc4c(cc3n2)OCO4)c1
Result string: 0.65

---

molecular target: Tubulin (Bos taurus, UniProt Q6B856+Q862L2+Q862F3); experiment: Inhibition of bovine tubulin polymerization; format: functional
observed_property: IC50 (nM)
Report only the number, with the unit nM understood.

Query string: Query: IC50; subject: Oc1cc(-c2cccc(C(F)(F)F)c2)nc2cc3c(cc12)OCO3
Result string: 820

Query string: Query: IC50; subject: COc1cccc(-c2cc(O)c3cc4c(cc3n2)OCO4)c1
Result string: 570

Query string: Query: IC50; subject: CCOc1cccc(-c2cc(O)c3cc4c(cc3n2)OCO4)c1
Result string: 470

Query string: Query: IC50; subject: Oc1cc(-c2cccc(OC(F)(F)F)c2)nc2cc3c(cc12)OCO3
Result string: 500

Query string: Query: IC50; subject: COc1cccc(-c2cc(O)c3cc(Cl)ccc3n2)c1
Result string: 700

Query string: Query: IC50; subject: Oc1cc(-c2ccccc2)nc2cc3c(cc12)OCO3
Result string: 630

Query string: Query: IC50; subject: Oc1cc(-c2cccc(Br)c2)nc2cc3c(cc12)OCO3
Result string: 530

Query string: Query: IC50; subject: COc1ccc(CCc2cc(OC)c(OC)c(OC)c2)cc1O
Result string: 630

Query string: Query: IC50; subject: Oc1cc(-c2cccc(OCc3ccccc3)c2)nc2cc3c(cc12)OCO3
Result string: 450

Query string: Query: IC50; subject: COc1cccc(-c2cc(O)c3cc(N4CCOCC4)ccc3n2)c1
Result string: 360

---

test system: SF-268; assay: Tested for in vitro tumor cell growth inhibition of CNS tumor cell line SF-268; format: functional; conditions: Homo sapiens
observed_property: GI50 (µM)
Report only the number, with the unit µM understood.

Query string: Query: GI50; subject: COc1cccc(-c2cc(O)c3cc(NC(C)=O)ccc3n2)c1
Result string: 5.5

Query string: Query: GI50; subject: COc1cccc(-c2cc(O)c3cc(N4CCN(C)CC4)ccc3n2)c1
Result string: 1.86

Query string: Query: GI50; subject: Oc1cc(-c2cccc(Br)c2)nc2cc3c(cc12)OCO3
Result string: 3.02

Query string: Query: GI50; subject: CC(=O)Nc1ccc2nc(-c3cccc(F)c3)cc(O)c2c1
Result string: 25.7

Query string: Query: GI50; subject: CNc1cccc(-c2cc(O)c3cc4c(cc3n2)OCO4)c1
Result string: 5.5

Query string: Query: GI50; subject: COc1cccc(-c2cc(O)c3cc(N(C)C)ccc3n2)c1
Result string: 0.0437

Query string: Query: GI50; subject: Oc1cc(-c2cccc(F)c2)nc2cc3c(cc12)OCO3
Result string: 0.661

Query string: Query: GI50; subject: Oc1cccc(-c2cc(O)c3cc4c(cc3n2)OCO4)c1
Result string: 2.29

Query string: Query: GI50; subject: CCOc1cccc(-c2cc(O)c3cc4c(cc3n2)OCO4)c1
Result string: 0.269

Query string: Query: GI50; subject: COc1cccc(-c2cc(O)c3cc(N4CCOCC4)ccc3n2)c1
Result string: 0.0537

Query string: Query: GI50; subject: Nc1cccc(-c2cc(O)c3cc4c(cc3n2)OCO4)c1
Result string: 0.759

Query string: Query: GI50; subject: Oc1cc(-c2cccc(OCc3ccccc3)c2)nc2cc3c(cc12)OCO3
Result string: 12.9

---

molecular target: Tubulin (Bos taurus, UniProt Q6B856+Q862L2+Q862F3); experiment: Inhibition of bovine tubulin polymerization; format: functional
observed_property: IC50 (µM)
Report only the number, with the unit µM understood.

Query string: Query: IC50; subject: COc1cccc(-c2cc(O)c3cc(N(C)C)ccc3n2)c1
Result string: 0.38

Query string: Query: IC50; subject: CN(C)c1cccc(-c2cc(O)c3cc4c(cc3n2)OCO4)c1
Result string: 0.7

Query string: Query: IC50; subject: CC(=O)Nc1ccc2nc(-c3cccc(Cl)c3)cc(O)c2c1
Result string: 2.3

Query string: Query: IC50; subject: COc1cccc(-c2cc(O)c3cc(N)ccc3n2)c1
Result string: 8.7

Query string: Query: IC50; subject: COc1cccc(-c2cc(O)c3cc(NC(C)=O)ccc3n2)c1
Result string: 2.1

Query string: Query: IC50; subject: COc1cccc(-c2cc(O)c3cc(N4CCN(C)CC4)ccc3n2)c1
Result string: 14

---

system: DU-145; test: Tested for in vitro tumor cell growth inhibition of prostate cancer cell line DU-145; type: functional; conditions: Homo sapiens
Kindly apply the following: Condition met if GI50 is less than 1000 nM, Condition not met in every other case.

Query string: Just wondering, is GI50 of Nc1ccc2nc(-c3cccc(C(F)(F)F)c3)cc(O)c2c1 below 1000 nM?
Result string: Condition not met

Query string: Just wondering, is GI50 of Oc1cc(-c2cccc(OC(F)(F)F)c2)nc2cc3c(cc12)OCO3 below 1000 nM?
Result string: Condition met

Query string: Just wondering, is GI50 of COc1cccc(-c2cc(O)c3cc(N4CCOCC4)ccc3n2)c1 below 1000 nM?
Result string: Condition met

Query string: Just wondering, is GI50 of CCOc1cccc(-c2cc(O)c3cc4c(cc3n2)OCO4)c1 below 1000 nM?
Result string: Condition met

Query string: Just wondering, is GI50 of COc1cccc(-c2cc(O)c3cc(N4CCCC4)ccc3n2)c1 below 1000 nM?
Result string: Condition met

Query string: Just wondering, is GI50 of Oc1cc(-c2cccc(OCc3ccccc3)c2)nc2cc3c(cc12)OCO3 below 1000 nM?
Result string: Condition not met

Query string: Just wondering, is GI50 of COc1cccc(-c2cc(O)c3cc(N4CCN(C)CC4)ccc3n2)c1 below 1000 nM?
Result string: Condition not met

Query string: Just wondering, is GI50 of COc1cccc(-c2cc(O)c3cc(N(C)C)ccc3n2)c1 below 1000 nM?
Result string: Condition met

Source: ChEMBL document CHEMBL1127857
